Test system: Lymphs
Procedure Text: Peptidases to distinguish leukemia from non-leukemia, lymphocytes
Type: cell-based, human
Design: unit not given here
Condition Notes: N194 normal
From the text: Artificial intelligence was used to analyze data of cellular enzyme functions, and determine normal and disease states. Peptidases were used to distinguish leukemia from non-leukemia (output pattern). For input patterns lymphocyte and granulocyte cell types were used with aminopeptidases, cathepsins and dipeptidylpeptidase enzyme activities. […]
Below, each entry is listed with its recorded enzyme activity.
Simply state the number, no unit and no words.

Below: 5 compounds and their reported enzyme activity.
Query :: Item NCC(=O)N1CCC[C@H]1C(=O)Nc1ccc2c(c1)Oc1cc(NC(=O)[C@@H]3CCCN3C(=O)CN)ccc1C21OC(=O)c2ccccc21 has what recorded enzyme activity?
Result :: 5.22

Query :: Item CC(C)C[C@H](N)C(=O)NCC(=O)Nc1ccc2c(c1)Oc1cc(NC(=O)CNC(=O)[C@@H](N)CC(C)C)ccc1C21OC(=O)c2ccccc21 has what recorded enzyme activity?
Result :: 2.06

Query :: Item NC(=O)CC[C@H](N)C(=O)N[C@@H](CO)C(=O)Nc1ccc2c(c1)Oc1cc(NC(=O)[C@H](CO)NC(=O)[C@@H](N)CCC(N)=O)ccc1C21OC(=O)c2ccccc21 [QS, (H--L--Gln--Ser)2 Rho 110-2TFA] has what recorded enzyme activity?
Result :: 0.02

Query :: Item C[C@@H](O)[C@H](N)C(=O)N1CCC[C@H]1C(=O)Nc1ccc2c(c1)Oc1cc(NC(=O)[C@@H]3CCCN3C(=O)[C@@H](N)[C@@H](C)O)ccc1C21OC(=O)c2ccccc21 has what recorded enzyme activity?
Result :: 1.82

Query :: Item CC(C)[C@H](N)C(=O)N[C@@H](CO)C(=O)Nc1ccc2c(c1)Oc1cc(NC(=O)[C@H](CO)NC(=O)[C@@H](N)C(C)C)ccc1C21OC(=O)c2ccccc21 [VS, (H--L--Val--Ser)2 Rho 110-2TFA] has what recorded enzyme activity?
Result :: 0.07

More entries:
Query :: Item O=C1OC2(c3ccc(NC(=O)[C@@H]4CCCN4)cc3Oc3cc(NC(=O)[C@@H]4CCCN4)ccc32)c2ccccc21 [PRO, (H--L--Pro)2 Rho 110-2TFA] has what recorded enzyme activity?
Result :: 0.86

Query :: Item C[C@H](N)C(=O)Nc1ccc2c(c1)Oc1cc(NC(=O)[C@H](C)N)ccc1C21OC(=O)c2ccccc21 has what recorded enzyme activity?
Result :: 97.02

Query :: Item NCC(=O)Nc1ccc2c(c1)Oc1cc(NC(=O)CN)ccc1C21OC(=O)c2ccccc21 has what recorded enzyme activity?
Result :: 39.76

Query :: Item NCCCC[C@H](N)C(=O)Nc1ccc2c(c1)Oc1cc(NC(=O)[C@@H](N)CCCCN)ccc1C21OC(=O)c2ccccc21 [LYS, (H--L--Lys)2 Rho 110-4TFA] has what recorded enzyme activity?
Result :: 0.93

* * *

Below, each entry is listed with its recorded enzyme activity.
Tested on: Grans
Procedure Text: Peptidases to distinguish leukemia from non-leukemia, granulocytes
Type: cell-based, human
Set-up: unit not given here
Condition Notes: N99° normal
Simply state the number, no unit and no words.

Query :: Could you share what enzyme activity was measured for NCC(=O)N1CCC[C@H]1C(=O)Nc1ccc2c(c1)Oc1cc(NC(=O)[C@@H]3CCCN3C(=O)CN)ccc1C21OC(=O)c2ccccc21 , tested on Grans?
Result :: 13.41

Query :: Could you share what enzyme activity was measured for NC(=O)CC[C@H](N)C(=O)N[C@@H](CO)C(=O)Nc1ccc2c(c1)Oc1cc(NC(=O)[C@H](CO)NC(=O)[C@@H](N)CCC(N)=O)ccc1C21OC(=O)c2ccccc21 [QS, (H--L--Gln--Ser)2 Rho 110-2TFA] , tested on Grans?
Result :: 0.05

API: the following record is the query input.
Query :: Could you share what enzyme activity was measured for O=C1OC2(c3ccc(NC(=O)[C@@H]4CCCN4)cc3Oc3cc(NC(=O)[C@@H]4CCCN4)ccc32)c2ccccc21 [PRO, (H--L--Pro)2 Rho 110-2TFA] , tested on Grans?
Result :: 4.85

Origin of measurements: patent US5733719A
